- target.entity: PDE10 (Homo sapiens)
- Sequence (Q9Y233 whole entry): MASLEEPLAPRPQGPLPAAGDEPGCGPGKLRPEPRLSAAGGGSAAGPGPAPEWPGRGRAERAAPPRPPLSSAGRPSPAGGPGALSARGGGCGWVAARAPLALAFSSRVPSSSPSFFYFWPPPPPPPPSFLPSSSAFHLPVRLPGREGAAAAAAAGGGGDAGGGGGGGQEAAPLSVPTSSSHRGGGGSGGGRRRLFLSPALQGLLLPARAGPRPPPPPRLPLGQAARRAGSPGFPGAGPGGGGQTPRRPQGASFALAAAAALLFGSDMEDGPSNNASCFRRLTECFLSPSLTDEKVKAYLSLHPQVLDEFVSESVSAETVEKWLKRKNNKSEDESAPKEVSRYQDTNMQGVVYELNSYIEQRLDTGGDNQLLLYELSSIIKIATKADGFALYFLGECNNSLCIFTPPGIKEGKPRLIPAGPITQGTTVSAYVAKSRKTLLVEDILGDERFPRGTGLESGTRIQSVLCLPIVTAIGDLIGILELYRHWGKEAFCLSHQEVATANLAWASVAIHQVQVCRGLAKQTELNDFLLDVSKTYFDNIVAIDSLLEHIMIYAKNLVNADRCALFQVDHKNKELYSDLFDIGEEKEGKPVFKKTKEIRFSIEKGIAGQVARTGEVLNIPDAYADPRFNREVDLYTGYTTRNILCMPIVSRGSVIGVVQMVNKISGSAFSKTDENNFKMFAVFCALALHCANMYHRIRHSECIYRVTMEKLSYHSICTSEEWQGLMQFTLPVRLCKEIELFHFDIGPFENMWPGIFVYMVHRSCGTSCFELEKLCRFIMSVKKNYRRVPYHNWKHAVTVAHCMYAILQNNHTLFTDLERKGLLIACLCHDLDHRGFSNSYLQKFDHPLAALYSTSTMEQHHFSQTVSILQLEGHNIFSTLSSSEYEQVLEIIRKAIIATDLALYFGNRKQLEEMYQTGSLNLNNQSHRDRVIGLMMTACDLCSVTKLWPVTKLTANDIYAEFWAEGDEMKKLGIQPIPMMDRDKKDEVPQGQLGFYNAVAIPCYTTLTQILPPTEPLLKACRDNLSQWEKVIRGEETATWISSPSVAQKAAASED

- input.smiles: "COc1cc2c(cc1OC)/C(=C\\c1cc(OC)c(OC)c(OC)c1)C(C)=C2CC(=O)O"
  IC50: "~7 µM"

* * *

- target.entity: PDE5 (Homo sapiens)
pIC50: −log10 of the molar value.
reported.metric: pIC50

- molecule: "COc1cc2c(cc1OC)/C(=C\\c1cc(OC)c(OC)c(OC)c1)C(C)=C2CC(=O)O [Compound 9]"
  reported.metric: "pIC50"
  reading: "~4.49"
